FYI, the data here is from BindingDB's records for doi:10.1016/j.bmcl.2003.11.012.

# TGT: Growth hormone secretagogue receptor type 1 (Homo sapiens, UniProt Q92847)
# Sequence (Q92847 whole entry): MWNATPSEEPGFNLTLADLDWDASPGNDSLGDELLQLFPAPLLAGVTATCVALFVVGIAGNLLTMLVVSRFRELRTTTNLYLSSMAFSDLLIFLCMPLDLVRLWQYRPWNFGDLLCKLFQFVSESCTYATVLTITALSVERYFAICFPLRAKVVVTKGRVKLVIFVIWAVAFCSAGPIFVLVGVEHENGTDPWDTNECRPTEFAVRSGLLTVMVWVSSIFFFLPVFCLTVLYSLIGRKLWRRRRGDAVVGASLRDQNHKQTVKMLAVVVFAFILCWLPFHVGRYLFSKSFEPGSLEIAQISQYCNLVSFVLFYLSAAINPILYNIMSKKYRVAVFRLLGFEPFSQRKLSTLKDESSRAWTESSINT
# TEST PROTOCOL: ChEBML_72507
PROPERTY NAME: IC50 (µM)
Numbers only, in µM.

INSERT INTO results (smiles_str, recorded_value) VALUES
  ('CN(C)CCCn1c(O)c(-c2ccccc2)n(Cc2ccc(-c3ccccc3-c3nnn[nH]3)cc2)c1=S', 35);

Read the next record carefully.
What IC50 value was documented for this compound, CN(C)CCCn1c(O)c(Cc2ccccc2)n(Cc2ccc(-c3ccccc3-c3nnn[nH]3)cc2)c1=S ? 35

----------
# TGT: Growth hormone secretagogue receptor type 1 (Homo sapiens, UniProt Q92847)
# TEST PROTOCOL: ChEBML_72507
pIC50: −log10 of the molar value.
Provide the reported pIC50 of each item.

Worked cases, pIC50 given:
INSERT INTO results (smiles_str, tgt, recorded_value) VALUES
  ('CN(C)c1ccc(-n2c(O)c(CCc3ccccc3)n(Cc3ccc(-c4ccccc4-c4nnn[nH]4)cc3)c2=S)cc1', 'Growth hormone secretagogue receptor type 1 (Homo sapiens, UniProt Q92847)', '< 4.00'),
  ('CN(C)C(=O)CCn1c(O)c(CCc2ccccc2)n(Cc2ccc(-c3ccccc3-c3nnn[nH]3)cc2)c1=O', 'Growth hormone secretagogue receptor type 1 (Homo sapiens, UniProt Q92847)', '< 4.00');

Read the next record carefully.
What pIC50 value was documented for this compound, NCCCn1c(O)c(CCc2ccccc2)n(Cc2ccc(-c3ccccc3-c3nnn[nH]3)cc2)c1=O ? < 4.00
